Test: Selectivity index, ratio of IC50 for human MRC5 cells to IC50 for chloroquine-resistant Plasmodium falciparum FCR-3
Type: toxicity, cell-based
Conditions: read-out: Ratio IC50
MEASURE: selectivity ratio
Answers are plain numbers.

Record excerpt, results attached:
COc1cc2c3c(nccc3c1[N+](=O)[O-])-c1ccccc1C2=O: 0.49
COc1cc2c3c(nccc3c1N)-c1ccccc1C2=O: 0.37
COc1cc2c3c(ncc(Br)c3c1)-c1ccccc1C2=O: 0.13
COc1cc2ccnc3c2c(c1O)C(=O)c1ccccc1-3: 1.27
COc1cc2ccnc3c2c(c1[N+](=O)[O-])C(=O)c1ccccc1-3: 1.42
COc1cc2c3c(c1)C(=O)c1ccccc1C3=NCC2: 32.4
O=C1c2ccccc2-c2nccc3cccc1c23: 0.18
COc1cc2ccnc3c2c(c1OC)C(=O)c1ccccc1-3: 0.68

Turning now to a further record.
Prompt: Field request: selectivity ratio | item: `COc1cc2ccnc3c2c(c1N)C(=O)c1ccccc1-3`
Response: 0.18

###

Test system: MRC5
Test: Cytotoxicity against human MRC5 cells
Type: cell-based
Label key: MET means IC50 under 40 µM; NOT MET means IC50 of 40 µM or more.

// known answers, use as guide
COc1cc2c3c(ncc(Br)c3c1)-c1ccccc1C2=O: MET
COc1cc2c3c(nccc3c1[N+](=O)[O-])-c1ccccc1C2=O: MET
COc1cc2ccnc3c2c(c1OC)C(=O)c1ccccc1-3: NOT MET
COc1cc2c3c(c1)C(=O)c1ccccc1C3=NCC2: NOT MET
COc1cc2ccnc3c2c(c1[N+](=O)[O-])C(=O)c1ccccc1-3: NOT MET
COc1cc2c3c(nccc3c1Br)-c1ccccc1C2=O: NOT MET
O=C1c2ccccc2-c2nccc3cccc1c23: NOT MET
COc1cc2ccnc3c2c(c1N)C(=O)c1ccccc1-3 [LAKSHMININE]: MET

Shifting focus to the molecule that follows.
Prompt: Please indicate whether the reported IC50 of `COc1cc2c3c(nccc3c1N)-c1ccccc1C2=O` is strictly below 40 µM.
Response: MET

###

Give selectivity ratio for every item shown.
Assay: Selectivity index, ratio of IC50 for human MRC5 cells to IC50 for chloroquine-resistant Plasmodium falciparum FCR-3
Type: toxicity, cell-based
Settings: read-out: Ratio IC50

Provide selectivity ratio values for the following items, in order.
1. COc1cc2c3c(nccc3c1Br)-c1ccccc1C2=O
2. COc1cc2c3c(nccc3c1)-c1ccccc1C2=O
3. O=C1c2ccccc2-c2ncc(Br)c3cccc1c23

Response:
["> 1.99", "> 15.6", "> 0.38"]

###

Tested on: MRC5
Test: Cytotoxicity against human MRC5 cells
Type: cell-based
pIC50: −log10 of the molar value.
Give pIC50 for every item shown.

COc1cc2c3c(nccc3c1)-c1ccccc1C2=O: < 4.00
COc1cc2ccnc3c2c(c1O)C(=O)c1ccccc1-3: 4.19

Turning now to a further record.
Prompt: Field request: pIC50 | item: `O=C1c2ccccc2-c2ncc(Br)c3cccc1c23`
Response: < 4.00
